- experiment-summary: Half life in rat at 300 mg/kg, po administered via gavage by HPLC/MS analysis
- Type: ADME, organism-based
- experimental-conditions: in vivo
observed-property: half-life (h)
One number for each entry, in h.

Provide half-life value for the following molecule: O=C(O)c1c(F)ccc2c1OB(O)[C@@H]1C[C@H]21 [XERUBORBACTAM]
3.65

====

- tested-on: Beta-lactamase (Klebsiella pneumoniae) (UniProt Q93LQ9)
- Sequence (Q93LQ9 as listed by the source): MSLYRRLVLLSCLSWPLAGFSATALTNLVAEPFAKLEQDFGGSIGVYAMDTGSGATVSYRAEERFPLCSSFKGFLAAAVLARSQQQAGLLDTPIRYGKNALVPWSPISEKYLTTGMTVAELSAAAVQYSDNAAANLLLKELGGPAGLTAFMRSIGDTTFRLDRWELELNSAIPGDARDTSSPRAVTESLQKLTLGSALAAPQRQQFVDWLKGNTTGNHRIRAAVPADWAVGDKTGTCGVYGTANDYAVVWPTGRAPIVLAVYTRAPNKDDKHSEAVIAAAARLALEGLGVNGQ
- experiment-summary: Inhibition of Klebsiella pneumoniae KP1004 KPC-2 assessed as minimum concentration of compound needed to reduce the MIC of aztreonam to 4 ug/ml
Threshold 1 µg/mL: MEC strictly smaller gives yes, otherwise no.

Check out these entries, answers already filled in.
compound	category
O=C(O)c1cccc2c1OB(O)[C@H]1C[C@@H]21	yes
Nc1nnc(S[C@H]2Cc3cccc(C(=O)O)c3OB2O)[nH]1	no
Nc1nnc(S[C@H]2Cc3ccc(OCC(F)F)c(C(=O)O)c3OB2O)s1	no
O=C(O)c1cccc2c1OB(O)[C@@H](OC1CNC1)C2	no
O=C(O)c1c(OC2COC2)ccc2c1OB(O)[C@@H](Sc1nncs1)C2	no
O=C(O)c1c(OCc2nncs2)ccc2c1OB(O)[C@@H](Sc1nncs1)C2	no
O=C(O)c1cccc2c1OB(O)[C@@H](Sc1c[nH]nn1)C2	no
NC(=O)[C@@H]1CC[C@@H]2CN1C(=O)N2OS(=O)(=O)O	yes

Dear reviewer, please state whether CSCC(=O)N[C@H]1Cc2cccc(C(=O)O)c2OB1O has MEC strictly beneath 1 µg/mL.
yes

Dear reviewer, please state whether CSCC(=O)N[C@H]1Cc2ccc(OCCO)c(C(=O)O)c2OB1O has MEC strictly beneath 1 µg/mL.
no

Dear reviewer, please state whether O=C(O)c1cccc2c1OB(O)[C@@H](Sc1nncs1)C2 has MEC strictly beneath 1 µg/mL.
no

Dear reviewer, please state whether NC(=O)CS[C@H]1Cc2cccc(C(=O)O)c2OB1O has MEC strictly beneath 1 µg/mL.
no

Dear reviewer, please state whether COc1ccc2c(c1C(=O)O)OB(O)C1(CC1)C2 has MEC strictly beneath 1 µg/mL.
no

Dear reviewer, please state whether N#CCOc1ccc2c(c1C(=O)O)OB(O)[C@@H](Sc1nncs1)C2 has MEC strictly beneath 1 µg/mL.
no

Data origin: ChEMBL document CHEMBL4616632
